- Protocol Text: Solubility in buffers at various pH values by dissolution tester, absorbance at 275 nm, 37° C.
- Assay type: physicochemical
- Measurement Parameters: jp xii second fluid, pH 6.8, pH 6.8, JP XII second fluid, read-out: solubility in a buffer at a pH value of 6.8
Readout Name: solubility (µg/mL)
A number alone suffices; assume µg/mL.

Task item: What does the data say about its solubility? Entry: NS(=O)(=O)c1cc(C(=O)O)cc(N2CCCC2)c1Oc1ccccc1 [piretanide polymorph]
Reply: 9270

* * *

- Protocol Text: Solubility in buffers at various pH values by dissolution tester, absorbance at 275 nm, 37° C.
- Format: physicochemical
- Measurement Parameters: jp xii second fluid, pH 6.8, pH 6.8, JP XII second fluid, read-out: solubility in a buffer at a pH value of 6.8 (control, unit as printed)
Readout Name: solubility (µg/mL)
A number alone suffices; assume µg/mL.

Task item: What does the data say about its solubility? Entry: NS(=O)(=O)c1cc(C(=O)O)cc(N2CCCC2)c1Oc1ccccc1 [piretanide form A]
Reply: 1940

Data origin: patent US6096779A
